Known inhibition of a selection of molecules
Molecular target: ATP-binding cassette sub-family B member 6 (Homo sapiens) (UniProt Q9NP58)
Sequence (Q9NP58 whole entry, looked up): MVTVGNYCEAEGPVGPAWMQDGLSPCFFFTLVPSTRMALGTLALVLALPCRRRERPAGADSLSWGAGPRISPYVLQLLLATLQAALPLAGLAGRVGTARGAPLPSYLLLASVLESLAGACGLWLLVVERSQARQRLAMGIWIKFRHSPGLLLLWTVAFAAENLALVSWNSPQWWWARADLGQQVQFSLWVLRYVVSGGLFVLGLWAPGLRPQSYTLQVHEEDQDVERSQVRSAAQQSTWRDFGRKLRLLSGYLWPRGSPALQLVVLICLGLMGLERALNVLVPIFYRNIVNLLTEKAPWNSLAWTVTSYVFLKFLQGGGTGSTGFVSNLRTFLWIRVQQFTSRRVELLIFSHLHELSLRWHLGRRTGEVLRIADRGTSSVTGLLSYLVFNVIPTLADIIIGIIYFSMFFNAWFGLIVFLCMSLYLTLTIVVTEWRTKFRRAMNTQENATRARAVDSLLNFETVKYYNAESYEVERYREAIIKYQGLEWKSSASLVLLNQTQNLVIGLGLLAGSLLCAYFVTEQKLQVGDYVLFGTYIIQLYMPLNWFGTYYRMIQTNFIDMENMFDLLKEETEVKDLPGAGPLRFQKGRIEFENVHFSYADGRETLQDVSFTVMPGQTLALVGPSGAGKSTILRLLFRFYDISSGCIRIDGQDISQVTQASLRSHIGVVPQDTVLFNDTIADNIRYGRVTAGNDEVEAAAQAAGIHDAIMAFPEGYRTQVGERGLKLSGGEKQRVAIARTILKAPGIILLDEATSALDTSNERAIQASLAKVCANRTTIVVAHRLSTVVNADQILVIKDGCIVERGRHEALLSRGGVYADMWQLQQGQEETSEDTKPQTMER
Assay: blockers of ABCB6-driven porphyrin uptake – K562-ABCB6 cells, flow cytometry, validation set, pilot screen (AID 588550);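 further: 0% = DMSO wells and 100% = benzethonium chloride 70 µM positive control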
Settings: K562-ABCB6 porphyrin accumulation, 1 h, at 10 µM, active compounds read high
Answer with a number only, understood to be in %.

Below are worked cases with known answers.
MOLECULE	inhibition / %
O=C(NCC1CCCO1)c1ccc(OC2CCN(C(=O)C3CC3)CC2)cc1 (stereo unspecified)	3
C[N+]1(C2CCC3CCCC2C3O)CCCCC1 (stereo unspecified)	32
CCn1c(SCC(=O)c2ccccc2)nc2ccccc2c1=O	9
CCOC(=O)c1c(C)oc2c1C(=O)c1ccccc1C2=O	-26
CCCC(CCC)C(=O)OC1C[C@H]2CC[C@@H](C1)[N+]2(C)C (stereo partly specified)	9
COc1ccc(/C=C2\CC/C(=C\c3ccc(OC)c(OC)c3)C2=O)cc1OC	2
COc1cc2[nH]c3c(=O)n(CCN4CCOCC4)cnc3c2cc1OC	5
CC(C)CN1CCN(Cc2cccn2-c2ccccn2)CC1CCO (stereo unspecified)	16

Task: System ATP-binding cassette sub-family B member 6 (Homo sapiens) (UniProt Q9NP58). Read-out inhibition. Item C[C@]12CCC3C(CC=C4C[C@@H](O)CC[C@@]43C)C1CCC2[C@]1(C)CCC(=O)O1 (stereo partly specified) . Report value.
Result: 9

Task: System ATP-binding cassette sub-family B member 6 (Homo sapiens) (UniProt Q9NP58). Read-out inhibition. Item `OCCN(CCO)c1nc(N2CCCCC2)c2nc(N(CCO)CCO)nc(N3CCCCC3)c2n1` . Report value.
Result: -6

Task: System ATP-binding cassette sub-family B member 6 (Homo sapiens) (UniProt Q9NP58). Read-out inhibition. Item CC(C)=CC/C=C1\CCC(C(=O)O)C(C(=O)O)C1 (stereo unspecified) . Report value.
Result: 14
